Biological target: T1, FLAG-tagged human APRIL (human, UniProt O75888 105-250, limits assumed)
T1 construct: also called FLAG-tagged APRIL; FLAG-APRIL; not shown: FLAG tag
T1 sequence (looked up): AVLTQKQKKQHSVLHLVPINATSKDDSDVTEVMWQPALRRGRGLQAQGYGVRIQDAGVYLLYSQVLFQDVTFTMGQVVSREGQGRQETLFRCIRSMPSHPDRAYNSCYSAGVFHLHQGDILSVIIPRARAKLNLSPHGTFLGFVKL
Test: FLAG-APRIL ELISA after 10 min at 70 °C, antibody at 0.316 µg/ml
parameter: % residual binding after heat treatment (room temperature = 100%)
Express it in %; write the number only.

Lookup: I'd like to know its % residual binding after heat treatment (room temperature = 100%). The binder in question is VH11.VL15 (antibody, human IgG4 S228P, kappa, V domains shown, Humanized IgG4 (S241P, Kabat) with human kappa, from HEK293T; also called 11.15) VH: QVQLVQSGAEVKKPGASVKVSCKASGYTFTSYVMHWVRQAPGQRLEWMGYINPYNDAPKYNEKFKGRVTITRDTSASTAYMELSSLRSEDTAVYYCARGLGYALYYAMDYWGQGTTVTVSS VL: DIVMTQSPSTLSASVGDRVTITCKASQNVGNNVAWYQQKPGKAPKLLISSASNRDSGVPSRFSGSGSGTEFTLTISSLQPDDFATYFCQQYNIYPFTFGQGTKLEIKR
Found: 82
